Tested on: T-cell receptor (TCR)
Test: small molecules blocking TCR binding to CD3 – biochemical, fluorescence, TAMRA-labeled TCR probe, primary screen (AID 651800);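 also: recombinant mutant TCR 2C K166C tagged with TAMRA read by polarization; 0% = receptor in buffer alone and 100% = receptor with positive control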
Conditions: at 9.4 µM, stronger effect = higher value
The whole screen tested about 360,000 compounds, of which about 1,300 (0.36%) were called active. The sample holds actives, similar compounds and a random draw of the others, so the mix is not that of the screen.
Recorded inhibition for the following molecules

{"columns": ["molecule", "unitInfo", "inhibition"],
 "data": [
  ["CCc1c(-c2ccccc2OC)ncn1CCc1ccccc1OC", "%", 7.58],
  ["CN1CCCc2nc(-c3ccccc3)ccc21", "%", 3.5],
  ["COc1ccc(NS(=O)(=O)c2cc(NC(=O)C3CCCCC3)ccc2N2CCOCC2)cc1", "%", 0.76],
  ["COCCNC(=O)Nc1ccc2nc(-c3ccco3)c(-c3ccco3)nc2c1", "%", 48],
  ["O=S1(=O)c2c(cccc2N2CCCC2)O[C@H](COCc2ccccc2)CN1C1CC1", "%", 19.3],
  ["Cc1cc(=O)n2[nH]c(-c3sccc3-n3c(C)ccc3C)cc2n1", "%", -6.69],
  ["CN1c2ccc(C=O)c3c(C=O)ccc(c23)N(C)C1(C)C", "%", 35],
  ["CSc1ccc(Oc2cccc3c2S(=O)(=O)N([C@H](C)c2ccccc2)C[C@@H](COCc2ccccc2)O3)cc1C", "%", 11.5],
  ["O=C(O)c1ccc(-n2nc(-c3ccccc3)c3ccccc3c2=O)cc1", "%", -0.55],
  ["COc1ccc(CCNC(=O)Nc2ccc3c(c2)c(=O)n(C)n3C)cc1OC", "%", -9.13],
  ["CC(C)CC1NC(=O)c2cc(Cl)ccc2-n2c1nc1ccccc1c2=O (stereo not given)", "%", 3.77],
  ["C=CC1=CCN(S(=O)(=O)C(C)(C)C)[C@@H]1CCO", "%", 5.24],
  ["N#Cc1cccc(C(=O)NCC2CCN(C(=O)C(=O)c3cc4ccccc4o3)CC2)c1", "%", 0.99],
  ["Cc1ccc2nc(-c3ccc(CN4CCC(n5cc(-c6ccccc6)[nH]c5=O)CC4)cc3)c(-c3ccccc3)nc2c1", "%", 5.23],
  ["C=CC1=C(C(=O)O)N2C(=O)[C@@H](NC(=O)/C(=N\\OCC(=O)O)c3csc(N)n3)[C@H]2SC1", "%", 4.98],
  ["CC(C)(C)C(=O)Nc1ccc(C(=O)N/N=C/c2ccccc2OC(=O)c2ccc(Cl)cc2Cl)cc1", "%", 33.2],
  ["Cc1ccc2nc(-c3ccc(NC(=O)CN(C)S(=O)(=O)c4ccccc4)cc3)sc2c1", "%", 8.35],
  ["C=CC1=C(C(=O)O)N2C(=O)[C@@H](NC(=O)/C(=N/OCC(=O)O)c3csc(N)n3)[C@H]2SC1", "%", 25.6],
  ["CC(=O)C1=C(C)N(Cc2ccc(Cl)cc2)C(=S)NC1c1ccc(F)cc1 (stereo not given)", "%", 3.88],
  ["O=C(N/N=C/c1ccoc1)c1ccc(Cl)cc1Cl", "%", 2.14]
]}

###

Tested on: T-cell receptor (TCR)
Assay: small molecules blocking TCR binding to CD3 – biochemical, fluorescence, TAMRA-labeled TCR probe, primary screen (AID 651800);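 also: recombinant mutant TCR 2C K166C tagged with TAMRA read by polarization; 0% = receptor in buffer alone and 100% = receptor with positive control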
Conditions: at 9.4 µM, stronger effect = higher value
Among all 360,000 compounds or so, about 1,300 (0.36%) were called active. Shown is part of a subset that was picked to be rich in actives.
propertyName: inhibition

{"columns": ["molecule", "propertyName", "assayResult"],
 "data": [
  ["CCOc1ccccc1C(=O)N1CCC[C@@H]1C(=O)N1CCC[C@H]1C(=O)NCc1ccccc1", "inhibition", "-2.28% (inactive)"],
  ["O=S(=O)(c1cccs1)N1CCCc2nc(-c3ccc(Br)cc3)ccc21", "inhibition", "3.53% (inactive)"],
  ["Nc1ncnc2c1ncn2C1OC(CO)CC1O (stereo unspecified)", "inhibition", "-7.35% (inactive)"],
  ["Cc1c(Cl)cccc1NC(=O)CCC(=O)N/N=C/c1ccco1", "inhibition", "1.69% (inactive)"],
  ["O=C(Cn1cnc2ccccc21)N/N=C/c1ccco1", "inhibition", "3.99% (inactive)"],
  ["COC(=O)Cc1nnn2c1[C@H](C)[C@@H](OC)c1cc(Br)ccc1-2", "inhibition", "-3.71% (inactive)"]
]}

###

Tested on: T-cell receptor (TCR)
Experiment: small molecules blocking TCR binding to CD3 – biochemical, fluorescence, TAMRA-labeled TCR probe, primary screen (AID 651800);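 also: recombinant mutant TCR 2C K166C tagged with TAMRA read by polarization; 0% = receptor in buffer alone and 100% = receptor with positive control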
Details: at 9.4 µM
Among all 360,000 compounds or so, about 1,300 (0.36%) were called active. No stated cut-off is given here; in the data, active means inhibition above about 19%; inactive means the rest. The full list was thinned out, with actives kept by preference.
Possible outcomes: TRUE (active), FALSE (inactive)

{"columns": ["compound", "classAssignment"],
 "data": [
  ["Cc1ccc(C(=O)NCC(=O)O)cc1S(=O)(=O)N1CCCCC1", "TRUE"],
  ["Cc1ccc(C(=O)NNC(=O)c2ccncc2)cc1S(=O)(=O)N1CCCCC1", "FALSE"],
  ["COC(=O)C1=C(C)NC(=S)NC1c1ccc(OC)cc1 (stereo not given)", "FALSE"],
  ["O=C(Nc1cccc(-c2nc3ccccc3[nH]2)c1)c1ccc(C(=O)Nc2cccc(-c3nc4ccccc4[nH]3)c2)cc1", "TRUE"],
  ["O=C(Nc1ccccc1)c1cc2ccccc2[nH]1", "FALSE"],
  ["COc1ccccc1N(CC(=O)N1CCCCC1)S(=O)(=O)c1ccccc1", "FALSE"],
  ["CCCCn1c(=S)[nH]c2cc(S(=O)(=O)N3CCCCC3)ccc21", "FALSE"],
  ["O=C(NCC(O)c1nc2ccccc2[nH]1)c1ccc(Br)cc1 (stereo not given)", "FALSE"],
  ["CSc1nc(N(C)NC(=O)c2cccc(C)c2)c2ccccc2n1", "FALSE"],
  ["Cc1ccc(CNC(=O)COc2ccc3c(c2)CCC3)cc1", "FALSE"],
  ["NCCN1CCN2C(=O)CN(C(=O)c3ccccc3)CC12 (stereo not given)", "FALSE"],
  ["COc1ccc(-c2c(-c3cc(OC)cc(OC)c3)n(C)c3ccc(-c4ccn[nH]4)cc23)cc1", "TRUE"],
  ["COc1ccc(NC(=O)N(C)C[C@@H]2OCCCC[C@@H](C)Oc3ccc(NC(=O)NC4CCCCC4)cc3C(=O)N([C@H](C)CO)C[C@@H]2C)cc1", "FALSE"],
  ["CCOCC(=O)NCc1ccc2c(c1)cc(C)n2C", "TRUE"],
  ["CCn1c(=S)[nH]c2cc(S(=O)(=O)N3CCOCC3)ccc21", "FALSE"],
  ["O=C(NCc1ccccc1)[C@@H]1CCCN1C(=O)[C@@H](NS(=O)(=O)c1ccc(F)cc1F)C1CCCCC1", "FALSE"],
  ["COc1ccccc1N(CC(=O)Nc1c(C)n(C)n(-c2ccccc2)c1=O)S(=O)(=O)c1ccccc1", "FALSE"],
  ["COc1ccc(S(=O)(=O)Nc2ccc3c(c2)C(=O)N([C@H](C)CO)C[C@H](C)[C@@H](CN(C)C)OCCCC[C@H](C)O3)cc1", "FALSE"],
  ["Cc1ccc(CNC(=O)Cc2cn(C)c3ccccc23)cc1", "FALSE"],
  ["COc1ccccc1C(CNC(=O)c1ccc(C)c(S(=O)(=O)N2CCCCC2)c1)N(C)C (stereo not given)", "FALSE"]
]}

###

System: T-cell receptor (TCR)
Experiment: small molecules blocking TCR binding to CD3 – biochemical, fluorescence, TAMRA-labeled TCR probe, primary screen (AID 651800);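 also: recombinant mutant TCR 2C K166C tagged with TAMRA read by polarization; 0% = receptor in buffer alone and 100% = receptor with positive control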
Conditions: at 9.4 µM
Hit rate of the full screen: of about 360,000 compounds, about 1,300 (0.36%) were called active. Cut-off read from the data, not from the text of the source: active = inhibition above about 19%; inactive = the rest. What follows is part of a selection rich in actives, with near analogues and random picks from the rest.
Possible outcomes: 1 (yes) (active), 0 (no) (inactive)

{"columns": ["compound", "classAssignment"],
 "data": [
  ["O=C(N/N=C/c1cc([N+](=O)[O-])ccc1O)/C(=C\\c1cccs1)NC(=O)c1ccccc1", "1 (yes)"],
  ["CCCCCCCCN1C(=O)[C@@H](CC(=O)N2CCN(C(=O)OCC)CC2)C[C@@]2(C(=O)OC)C1=C[C@H](C1CCCC1)O[C@@H]2C", "0 (no)"],
  ["Clc1cccc2c1C1CC2CCN1Cc1ccccc1 (centres undefined)", "0 (no)"],
  ["O=C(Nc1cccc2ccccc12)NC1CC1", "0 (no)"],
  ["CCOc1[nH]n(-c2ccc(Cl)cc2)c(=O)c1C=Nc1ccc(O)cc1", "1 (yes)"],
  ["CCCCOCC1CN(CCCC)S(=O)(=O)c2c(Oc3ccc(F)cc3)cccc2O1 (centres undefined)", "0 (no)"],
  ["CC(=O)c1c(C)[nH]c(C(=O)COc2ccc3c(C)cc(=O)oc3c2)c1C", "0 (no)"],
  ["CC(=O)N/N=C(\\C)c1ccc(Br)cc1Br", "0 (no)"],
  ["COC(=O)C1=C(C)N(Cc2ccccc2C(F)(F)F)C(=NCc2ccc(OC)cc2)NC1c1cccc(C(F)(F)F)c1 (centres undefined)", "0 (no)"],
  ["CCN(C(=O)Nc1cccc2ccccc12)c1ccccc1", "1 (yes)"],
  ["COc1ccccc1C(=O)N1O[C@]23C=C[C@]14C[C@@H](O)CC[C@]4(C)C2CC[C@]1(C)[C@@H]([C@H](C)/C=C/[C@H](C)C(C)C)CC[C@H]13 (some centres undefined)", "0 (no)"],
  ["Cc1[nH]nc2c1C(c1ccc(Br)cc1)NC2=O (centres undefined)", "0 (no)"],
  ["Cc1ccc(Cc2cnc(N)s2)o1", "1 (yes)"],
  ["C[C@H](O)[C@@H]1C(=O)N2CCc3c([nH]c4c(-c5ccc6c(c5)OCO6)cccc34)[C@@H]2C[C@@H]1N(C)C(=O)c1ccco1", "0 (no)"],
  ["COc1ccccc1CCn1cnc(-c2ccccc2)c1C(C)C", "0 (no)"],
  ["COC(=O)[C@]1(Cc2ccccc2)NC=C(C(=O)c2ccccc2)[C@@H]1c1cccc(OC)c1", "0 (no)"],
  ["Nc1nc2c(ncn2[C@@H]2O[C@H](C(=O)N[C@@H](Cc3ccccc3)C(=O)NCc3ccccc3)[C@@H](O)[C@H]2O)c(=O)[nH]1", "0 (no)"],
  ["COc1cc(/C=C(/NC(=O)c2ccccc2)C(=O)Nc2cccc(O)c2)c([N+](=O)[O-])cc1OC", "0 (no)"],
  ["Cc1ccc(CCC(=O)Nc2ncc(Cc3cc(Cl)ccc3Cl)s2)o1", "0 (no)"]
]}

Where do the numbers come from? From PubChem BioAssay AID651800.
